Tested on: CAKI-1
Assay: NCI tumour cell line growth inhibition, 48 h
Active and inactive are the calls of the source. Rule as the data show it: active = GI50 up to about 1.1 µM and inactive = higher.
Recorded GI50 by entry

Reference set, count: 5
[
  {
    "molecule": "NS(=O)(=O)c1ccc(NNc2c3ccccc3nc3ccccc23)cc1",
    "GI50": "13 µM (inactive)"
  },
  {
    "molecule": "S=c1sc2c(s1)SCCCCSCCCCSc1sc(=S)sc1SCCCCSCCCCS2",
    "GI50": "> 100 µM (inactive)"
  },
  {
    "molecule": "CCC(=O)Nc1ccc(N2C(=O)C(Cl)C2c2ccc(SC)cc2)cc1 (stereo not given)",
    "GI50": "> 100 µM (inactive)"
  },
  {
    "molecule": "CCOC(=O)C=C1CCC2(CC1)OCCO2",
    "GI50": "> 100 µM (inactive)"
  },
  {
    "molecule": "NC(Cc1ccccc1)C(=O)N[C@H]1c2ccsc2/C(=N/O)[C@H]1O (stereo not given in full)",
    "GI50": "> 100 µM (inactive)"
  }
]

Task: Quick one: GI50 for C=C1CC2(CC(c3ccccc3C)OC(c3ccccc3C)C2)OC1=O (stereo not given) ?
Result: 1.87 µM (inactive)

Task: Consider the molecule shown here: O=C1C2CC=CCC2C(=O)N1n1c(Cc2ccc(Cl)cc2)n[nH]c1=O (stereo not given) What is its recorded GI50?
Result: > 100 µM (inactive)

Task: For the molecule "Cc1ccc(NC(=O)CSc2nnc(Cc3ccccc3)o2)cc1" , what GI50 is on record?
Result: > 100 µM (inactive)

Task: GI50 for "COc1ccc(/C=C2\CN(C)Cc3c2nc(O)c(C#N)c3-c2ccc(OC)cc2)cc1" ?
Result: > 100 µM (inactive)

Task: For the molecule shown here, "O=C1C=CC(=O)c2c1ccc1c3ccccc3n(CCCCCn3c4ccccc4c4ccc5c(c43)C(=O)C=CC5=O)c21" , give the reported GI50.
Result: 6.98 µM (inactive)

###

Test system: SK-MEL-2
Assay: NCI tumour cell line growth inhibition, 48 h
Activity calls are given as the source filed them. Cut-off read from the data, not from the text of the source: active = GI50 up to about 1.1 µM and inactive = higher.
Below is a list of entries, each paired with its recorded GI50 value.

Answered examples (2):
[
  {
    "compound": "O=C1c2cccc(O)c2C(=O)c2cccc(O)c21 [ANTHRARUFIN]",
    "reportedMeasurement": "> 100 µM (inactive)"
  },
  {
    "compound": "Nc1nc2c(ncn2C2CCC(CO)O2)c(=O)n1C(=O)c1ccccc1 (stereo unspecified)",
    "reportedMeasurement": "> 100 µM (inactive)"
  }
]

Task: Item "c1cc(CCN2CCCCC2)ccn1" has what recorded GI50?
Result: > 100 µM (inactive)

###

Some molecules, each annotated with its measured GI50.
System: DU-145
Experiment: NCI tumour cell line growth inhibition, 48 h
Calls of active or inactive are those of the source. Cut-off read from the data, not from the text of the source: active = GI50 up to about 1.1 µM and inactive = higher.

[
  {
    "molecule": "C=C1C(=O)OC2/C=C(/CO)C3(O)CC(O)C(C)(CC(OC(=O)/C(C)=C/C)C12)O3 (stereo not given)",
    "GI50": "18.5 µM (inactive)"
  },
  {
    "molecule": "COc1ccc(-n2cnc3c(NC(CCSC)C(=O)O)ncnc32)cc1 (stereo not given)",
    "GI50": "> 100 µM (inactive)"
  },
  {
    "molecule": "CC(=O)Nc1ccc(S(=O)(=O)Nc2nc(-c3ccc(Cl)cc3)cc(N3N=C(c4ccc(Br)cc4)CC3c3ccccc3)n2)cc1 (stereo not given)",
    "GI50": "20.4 µM (inactive)"
  },
  {
    "molecule": "O=C(O)Cn1cc([N+](=O)[O-])c(=O)c2ccccc21",
    "GI50": "57 µM (inactive)"
  }
]

Now consider a different molecule.
Task: Write down the reported GI50 of "CC(=O)c1ccc2c3c1[C@@H]1O[C@@H]1c1cccc(c1-3)[C@@H]1O[C@H]21" , test system: DU-145.
Result: 8.39 µM (inactive)
